Source: patent US9801901B2

# System: Acinetobacter baumannii MDR ACB from Libya (V4)
# experimental.details: MIC assay, CAMHB with alginate oligomer, no visible growth
# Assay type: cell-based
# condition.label: Acinetobacter baumannii, Table 7; V4 MDR Acin baum (Libya); M-block oligomer +2% M; read-out: MIC
readout.label: MIC (µg/mL)
Kindly answer with a numeric value in µg/mL, unit omitted.

Record excerpt, results attached:
{"columns": ["compound", "MIC, µg/mL"],
 "data": [
  ["O=C(O)c1cn(C2CC2)c2cc(N3CCNCC3)c(F)cc2c1=O [Ciprofloxacin]", 64],
  ["C[C@@H](O)[C@H]1C(=O)N2C(C(=O)O)=C(S[C@@H]3CN[C@H](C(=O)N(C)C)C3)[C@H](C)[C@H]12 [Meropenem]", 32],
  ["C[C@H]1[C@H](NC(=O)/C(=N\\OC(C)(C)C(=O)O)c2csc(N)n2)C(=O)N1S(=O)(=O)O [Aztreonam]", 512]
]}

Input: What value of MIC has been reported for the following compound? CC[C@H]1OC(=O)[C@H](C)[C@@H](O[C@H]2C[C@@](C)(OC)[C@@H](O)[C@H](C)O2)[C@H](C)[C@@H](O[C@@H]2O[C@H](C)C[C@H](N(C)C)[C@H]2O)[C@](C)(O)C[C@@H](C)CN(C)[C@H](C)[C@@H](O)[C@]1(C)O [Azithromycin]
Output: 8

----------
# System: V23 1322 Burkholderia cepacia
# experimental.details: MIC assay, CAMHB with alginate oligomer, no visible growth
# Assay type: cell-based
# condition.label: Burkholderia cepacia, Table 6; V23; Experiment 2 (18-03-10); OligoCF-5/20 0G; read-out: MIC
# reported MIC; entries follow
Kindly answer with a numeric value in µg/mL, unit omitted.

{"columns": ["molecule", "MIC, µg/mL"],
 "data": [
  ["CC[C@H]1OC(=O)[C@H](C)[C@@H](O[C@H]2C[C@@](C)(OC)[C@@H](O)[C@H](C)O2)[C@H](C)[C@@H](O[C@@H]2O[C@H](C)C[C@H](N(C)C)[C@H]2O)[C@](C)(O)C[C@@H](C)CN(C)[C@H](C)[C@@H](O)[C@]1(C)O [Azithromycin]", 32],
  ["CC[C@H]1OC(=O)[C@H](C)[C@@H](O[C@H]2C[C@@](C)(OC)[C@@H](O)[C@H](C)O2)[C@H](C)[C@@H](O[C@@H]2O[C@H](C)C[C@H](N(C)C)[C@H]2O)[C@](C)(OC)C[C@@H](C)C(=O)[C@H](C)[C@@H](O)[C@]1(C)O [Clarithromycin]", 128]
]}

Input: What value of MIC has been reported for the following molecule? CC(C)(O/N=C(\C(=O)N[C@@H]1C(=O)N2C(C(=O)[O-])=C(C[n+]3ccccc3)CS[C@H]12)c1csc(N)n1)C(=O)O [Ceftazidime]
Output: 64

----------
# Tested on: Acinetobacter lwoffii (Egypt, V10)
# experimental.details: MIC-assay, Mueller-Hinton broth with G-block alginate, 384-well, OD600
# condition.label: Table 9, G-block (OligoCF-5/20) 10%
readout.label: MIC (µg/mL)
Kindly answer with a numeric value in µg/mL, unit omitted.

{"columns": ["cpd.smiles", "readout.label", "numeric.readout"],
 "data": [
  ["CN(C)[C@@H]1C(O)=C(C(N)=O)C(=O)[C@@]2(O)C(O)=C3C(=O)c4c(O)cccc4[C@@](C)(O)[C@H]3[C@H](O)[C@@H]12", "MIC", 0.5],
  ["C[C@H]1[C@H](NC(=O)/C(=N\\OC(C)(C)C(=O)O)c2csc(N)n2)C(=O)N1S(=O)(=O)O", "MIC", 1]
]}

Input: What value of MIC has been reported for the following compound? "O=C(O)c1cn(C2CC2)c2cc(N3CCNCC3)c(F)cc2c1=O"
Output: 0.031
